Experiment: In vivo pharmacokinetics after a single dose, monkey
Conditions: male, plasma; Cynomolgus monkey, 1 mg/kg IV single dose
assay-metric: half-life (h)
One number for each entry, in h.

# compound CC(=O)N1CCn2c(C3CCOCC3)nc(-c3cccc4cc(-c5cnc(C)s5)ncc34)c2C1 [Compound 1] ; its half-life = 4.74

----------
Experiment: In vivo pharmacokinetics after a single dose, monkey
Details: male, plasma; Cynomolgus monkey, 3 mg/kg PO single dose
assay-metric: Cmax (nM)
Numbers only, in nM.

# molecule "CC(=O)N1CCn2c(C3CCOCC3)nc(-c3cccc4cc(-c5cnc(C)s5)ncc34)c2C1" ; its Cmax = 1970

----------
Test: In vivo pharmacokinetics after a single dose, rat
Settings: male, plasma; Sprague-Dawley rat, 1 mg/kg IV single dose; read-out: Vss
assay-metric: Vd (L/kg)
Give bare numbers, in L/kg.

# compound "CC(=O)N1CCn2c(C3CCOCC3)nc(-c3cccc4cc(-c5cnc(C)s5)ncc34)c2C1" ; its Vd = 2.31

----------
Test: In vivo pharmacokinetics after a single dose, dog
Settings: male, plasma; Beagle dog, 3 mg/kg PO single dose
Method: IV (intravenous) doses were formulated in 20% DMSO+60% PEG400+20% water. PO (per os) doses were formulated in 0.5% methylcellulose in water. Dog: Male Beagle dogs (purchased from Beijing Marshall Biotechnology Co., Ltd) weighing 7-10 kg were used for studies. Animals were fasted overnight and fed 4 h postdose. […] Test article concentrations in plasma were quantified using a liquid chromatography with tandem mass spectrometry (LC-MS/MS) method.
assay-metric: Cmax (nM)
Numbers only, in nM.

# compound CC(=O)N1CCn2c(C3CCOCC3)nc(-c3cccc4cc(-c5cnc(C)s5)ncc34)c2C1 [Compound 1] ; its Cmax = 2560

----------
Test: In vivo pharmacokinetics after a single dose, rat
Details: male, plasma; Sprague-Dawley rat, 1 mg/kg IV single dose
assay-metric: clearance (mL/min/kg)
Answers are plain numbers, in mL/min/kg.

# compound "CC(=O)N1CCn2c(C3CCOCC3)nc(-c3cccc4cc(-c5cnc(C)s5)ncc34)c2C1" ; its clearance = 11.2

----------
Assay: In vivo pharmacokinetics after a single dose, rat
Details: male, plasma; Sprague-Dawley rat, 1 mg/kg IV single dose
assay-metric: half-life (h)
One number for each entry, in h.

# molecule CC(=O)N1CCn2c(C3CCOCC3)nc(-c3cccc4cc(-c5cnc(C)s5)ncc34)c2C1 [Compound 1] ; its half-life = 3.82

----------
Assay: In vivo pharmacokinetics after a single dose, mouse
Set-up: species or system Female CD-1 Mice
Conditions: plasma, Female CD-1 mice, single dose 0.2 or 0.3 mg/kg IV, read-out: Vss
assay-metric: Vd (L/kg)
Give bare numbers, in L/kg.

# count of solved cases: 2
> print(dat)
                                   compound  recorded.measurement
1  CNC(=O)c1ccc(-c2cc3cccc(-c4nc(C5CCOCC5)n5c4CN(C(C)=O)CC5)c3cn2)cn1 [Compound 3]                  1.84
2  CNC(=O)c1ccc(-c2cc3cccc(-c4nc(C5CCOCC5)n5c4CN(C(=O)NC)CC5)c3cn2)cn1 [Compound 8, reference compound]                     2

Below: the item to evaluate.
# compound CC(=O)N1CCn2c(C3CCOCC3)nc(-c3cccc4cc(-c5cnc(C)s5)ncc34)c2C1 [Compound 1] ; its Vd = 1.45

----------
Test: Metabolic stability in mouse liver microsomes
Format: in vitro ADME, CD-1 mouse
Conditions: CD-1, liver microsomes, pH 7.4, 0.5 mg/mL microsomes, NADPH, 45 minutes, 37° C., read-out: Half-life in liver microsomes (t1/2)
For each of the molecules below, state its half-life at 1 μM.
Give bare numbers, in h.

# count of solved cases: 2
> print(dat)
                                   molecule       assay.metric  recorded.measurement
1  CNC(=O)c1ccc(-c2cc3cccc(-c4nc(C5CCOCC5)n5c4CN(C(=O)NC)CC5)c3cn2)cn1 [Compound 8, reference compound]  half-life at 1 μM                  10.2
2  CNC(=O)c1ccc(-c2cc3cccc(-c4nc(C5CCOCC5)n5c4CN(C(C)=O)CC5)c3cn2)cn1  half-life at 1 μM                  8.03

Below: the item to evaluate.
# molecule "CC(=O)N1CCn2c(C3CCOCC3)nc(-c3cccc4cc(-c5cnc(C)s5)ncc34)c2C1" ; its half-life at 1 μM = 6.55

----------
Test: In vivo pharmacokinetics after a single dose, dog
Details: male, plasma; Beagle dog, 3 mg/kg PO single dose
assay-metric: AUC(0-t) (µM·h)
Answers are plain numbers, in µM·h.

# compound CC(=O)N1CCn2c(C3CCOCC3)nc(-c3cccc4cc(-c5cnc(C)s5)ncc34)c2C1 [Compound 1] ; its AUC(0-t) = 26.2

----------
Assay: In vivo pharmacokinetics after a single dose, monkey
Conditions: male, plasma; Cynomolgus monkey, 3 mg/kg PO single dose
assay-metric: bioavailability (%)
Numbers only, in %.

# molecule CC(=O)N1CCn2c(C3CCOCC3)nc(-c3cccc4cc(-c5cnc(C)s5)ncc34)c2C1 [Compound 1] ; its bioavailability = 70.5

----------
Assay: In vivo pharmacokinetics after a single dose, monkey
Details: male, plasma; Cynomolgus monkey, 1 mg/kg IV single dose
assay-metric: clearance
State the result as a value with its unit after it.

# compound "CC(=O)N1CCn2c(C3CCOCC3)nc(-c3cccc4cc(-c5cnc(C)s5)ncc34)c2C1" ; its clearance = 6.97 mL/min/kg

----------
Assay: In vivo pharmacokinetics after a single dose, dog
Conditions: male, plasma; Beagle dog, 3 mg/kg PO single dose
Procedure: IV (intravenous) doses were formulated in 20% DMSO+60% PEG400+20% water. PO (per os) doses were formulated in 0.5% methylcellulose in water. Dog: Male Beagle dogs (purchased from Beijing Marshall Biotechnology Co., Ltd) weighing 7-10 kg were used for studies. Animals were fasted overnight and fed 4 h postdose. […] Test article concentrations in plasma were quantified using a liquid chromatography with tandem mass spectrometry (LC-MS/MS) method.
assay-metric: bioavailability (%)
Answers are plain numbers, in %.

# compound CC(=O)N1CCn2c(C3CCOCC3)nc(-c3cccc4cc(-c5cnc(C)s5)ncc34)c2C1 [Compound 1] ; its bioavailability = 119

----------
For each of the compounds below, state its half-life at 1 μM.
Test: Metabolic stability in rat liver microsomes
Assay type: in vitro ADME
Conditions: Sprague Dawley, pH 7.4, 0.5 mg/mL microsomes, NADPH, 45 minutes, 37° C., read-out: Half-life in liver microsomes (t1/2)
One number for each entry, in h.

Could you tell me half-life at 1 μM for each of these compounds? They are listed below.
1. CC(=O)N1CCn2c(C3CCOCC3)nc(-c3cccc4cc(-c5cnc(C)s5)ncc34)c2C1
2. CNC(=O)c1ccc(-c2cc3cccc(-c4nc(C5CCOCC5)n5c4CN(C(=O)NC)CC5)c3cn2)cn1 [Compound 8, reference compound]

1: 20.4; 2: 9

# compound "CNC(=O)c1ccc(-c2cc3cccc(-c4nc(C5CCOCC5)n5c4CN(C(C)=O)CC5)c3cn2)cn1" ; its half-life at 1 μM = 5.03

----------
Experiment: Metabolic stability in monkey liver microsomes
Format: in vitro ADME
Details: pH 7.4, read-out: Liver microsomal clearance (t1/2)
Experimental: Microsomal stability. Microsomal stability assays were conducted on a Beckmann Biomek FXp laboratory automation system. The liver microsomal incubation mixture consisted of liver microsomes (0.5 mg microsomal protein/mL), the Compound (1 μM), MgCl2 (3 mM), and EDTA (1 mM) in potassium phosphate buffer (100 mM, pH 7.4). Midazolam and Ketanserin were used as the assay control substrates. […] After vortex and centrifugation, samples were analyzed by LC-MS/MS. […]
assay-metric: half-life at 1 μM (h)
Answers are plain numbers, in h.

# molecule "CC(=O)N1CCn2c(C3CCOCC3)nc(-c3cccc4cc(-c5cnc(C)s5)ncc34)c2C1" ; its half-life at 1 μM = 1.62

----------
Assay: In vivo pharmacokinetics after a single dose, mouse
Set-up: species or system Female CD-1 Mice
Conditions: plasma, Female CD-1 mice, single dose 0.2 or 0.3 mg/kg IV
assay-metric: half-life (h)
Answers are plain numbers, in h.

> print(dat)
                                   molecule  recorded.measurement
1  CC(=O)N1CCn2c(C3CCOCC3)nc(-c3cccc4cc(-c5cnc(C)s5)ncc34)c2C1                  2.99
2  CNC(=O)c1ccc(-c2cc3cccc(-c4nc(C5CCOCC5)n5c4CN(C(=O)NC)CC5)c3cn2)cn1 [Compound 8, reference compound]                 0.588

# molecule "CNC(=O)c1ccc(-c2cc3cccc(-c4nc(C5CCOCC5)n5c4CN(C(C)=O)CC5)c3cn2)cn1" ; its half-life = 2.55

----------
Test: Metabolic stability in dog liver microsomes
Type: in vitro ADME
Settings: pH 7.4, read-out: Liver microsomal clearance (t1/2)
assay-metric: half-life at 1 μM (h)
One number for each entry, in h.

# compound CC(=O)N1CCn2c(C3CCOCC3)nc(-c3cccc4cc(-c5cnc(C)s5)ncc34)c2C1 [Compound 1] ; its half-life at 1 μM = 11.9
